Reference for the values: patent US8729055B2

Tested on: accumulation of NO2−
Assay: Experiment A: accumulation of NO2− (Griess reaction)
Assay type: cell-based, rat
Settings: inhibition of accumulation of NO2−
value-kind: IC50 (µM)

>  <record-smiles>
C=C(C)[C@@H]1CC[C@]2(C)[C@H](CC=C3[C@@H]4[C@@H](C)[C@H](C)CC[C@]4(C(=O)O)CC[C@]32C)[C@@]1(C)CCC(=O)OC

>  <endpoint-value>
15.6

$$$$
>  <record-smiles>
C[C@H]1[C@H](C)CC[C@]2(C(=O)OCC(=O)OC(C)(C)C)CC[C@]3(C)C(=CC[C@@H]4[C@@]5(C)CC[C@H](O)C(C)(C)[C@@H]5CC[C@]43C)[C@H]12

>  <endpoint-value>
21.7

$$$$

* * *

Overview of recorded percentage of inhibition at 30 μM, A NO2− for various compounds
Tested on: accumulation of NO2−
Test: Experiment A: accumulation of NO2− (Griess reaction)
Format: cell-based, rat
Settings: 30 μM; given when 50% inhibition not reached
Kindly answer with a numeric value in %, unit omitted.

Some entries whose results are on file:
>  <compound>
CC(C)=CCOC(=O)[C@]12CC[C@@H](C)[C@H](C)[C@H]1C1=CC[C@@H]3[C@@]4(C)CC[C@H](O)C(C)(C)[C@@H]4CC[C@@]3(C)[C@]1(C)CC2

>  <tested-on>
accumulation of NO2−

>  <unit-text>
%

>  <endpoint-value>
45.2

$$$$
>  <compound>
CC(C)OC(=O)[C@]12CC[C@@H](C)[C@H](C)[C@H]1C1=CC[C@@H]3[C@@]4(C)CC[C@H](O)C(C)(C)[C@@H]4CC[C@@]3(C)[C@]1(C)CC2 [Compound 5, Isopropyl 3β-hydroxyurs-12-en-28-oate]

>  <tested-on>
accumulation of NO2−

>  <unit-text>
%

>  <endpoint-value>
45.3

$$$$
>  <compound>
CCCCCOC(=O)[C@]12CC[C@@H](C)[C@H](C)[C@H]1C1=CC[C@@H]3[C@@]4(C)CC[C@H](O)C(C)(C)[C@@H]4CC[C@@]3(C)[C@]1(C)CC2 [Compound 7, Pentyl 3β-hydroxyurs-12-en-28-oate]

>  <tested-on>
accumulation of NO2−

>  <unit-text>
%

>  <endpoint-value>
29.8

$$$$
>  <compound>
C[C@H]1[C@H](C)CC[C@]2(C(=O)O)CC[C@]3(C)C(=CC[C@@H]4[C@@]5(C)CCC(=O)OC(C)(C)[C@@H]5CC[C@]43C)[C@H]12

>  <tested-on>
accumulation of NO2−

>  <unit-text>
%

>  <endpoint-value>
41.0

$$$$

Now for another entry.
Briefly, percentage of inhibition at 30 μM, A NO2− measured for `C[C@H]1[C@H](C)CC[C@]2(C(=O)OCCO)CC[C@]3(C)C(=CC[C@@H]4[C@@]5(C)CC[C@H](O)C(C)(C)[C@@H]5CC[C@]43C)[C@H]12` : 33.1

* * *

System: NTUB1 cells (human bladder cancer cell line)
Assay: MTT cytotoxicity assay against NTUB1 cells
Type: cell-based
Details: Homo sapiens; NTUB1 cells, MTT, 72 h, mean±SD (n=5)
value-kind: pIC50
// field semantics: pIC50 = negative decimal log of concentration (mol/L)

Briefly, pIC50 measured for `C[C@H]1[C@H](C)CC[C@]2(C(=O)O)CC[C@]3(C)C(=CC[C@@H]4[C@@]5(C)CC[C@H](O)C(C)(C)[C@@H]5CC[C@]43C)[C@H]12` : 4.53
